Tested on: Rattus norvegicus
Experiment: Area under curve in rat after p.o. administration
Conditions: in vivo, po
Observable: AUC N (uM hr dose-1)

(A) CCC(CC)[C@H](C(=O)O)N1C[C@H](CN2CCC(c3cc(Cc4ccccc4)nn3CC)CC2)[C@@H](c2cccc(F)c2)C1
(B) CCn1nc(Cc2ccccc2)cc1C1CCN(C[C@H]2CN([C@H](CC3CCC3)C(=O)O)C[C@@H]2c2cccc(F)c2)CC1
(C) CC[C@@H](C)[C@H](C(=O)O)N1C[C@H](CN2CCC(c3cc(Cc4ccccc4)nn3CC)CC2)[C@@H](c2cccc(F)c2)C1
## Input Ordering criterion: AUC N; begin with the maximum. State the ranking by listing the labels in the requested order.
## Output A, C, B
